Assay: Whole blood stability
Type: in vitro ADME, human
Details: both sexes, whole blood (sodium heparin), pH 7.4; Human Whole Blood
endpointName: half-life at 0.5 μM (h)
Give your result in h as a bare value.

Q. Supply recorded half-life at 0.5 μM for CCC1(O)C(=O)OCc2c1cc1n(c2=O)Cc2cc3cc4c(cc3nc2-1)OCO4 (stereo not shown) here.
A. 1.23

====

Experiment: in vivo
Details: female, SCID, mouse, plasma, oral
endpointName: bioavailability (%)
Give your result in % as a bare value.

Q. Supply recorded bioavailability for CCC1(O)C(=O)OCc2c1cc1n(c2=O)Cc2cc3cc4c(cc3nc2-1)OCO4 (stereo not shown) [FL118] here.
A. 84.6
